- measured.target: 5-hydroxytryptamine receptor 2A (Homo sapiens, UniProt P28223)
- Sequence (P28223 whole entry): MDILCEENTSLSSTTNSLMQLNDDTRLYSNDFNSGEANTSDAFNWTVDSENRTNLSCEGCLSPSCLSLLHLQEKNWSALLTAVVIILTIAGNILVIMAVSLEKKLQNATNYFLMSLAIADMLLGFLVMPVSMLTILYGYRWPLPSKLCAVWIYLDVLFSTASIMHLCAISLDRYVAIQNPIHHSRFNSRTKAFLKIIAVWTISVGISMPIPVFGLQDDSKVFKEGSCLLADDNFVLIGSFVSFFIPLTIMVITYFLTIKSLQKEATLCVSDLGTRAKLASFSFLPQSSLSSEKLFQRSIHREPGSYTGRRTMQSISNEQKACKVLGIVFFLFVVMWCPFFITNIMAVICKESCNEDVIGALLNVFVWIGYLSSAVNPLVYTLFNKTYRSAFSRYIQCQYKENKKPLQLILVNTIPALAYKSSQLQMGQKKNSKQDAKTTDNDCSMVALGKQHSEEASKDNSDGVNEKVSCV
- assay.details: Inverse agonist activity at human 5HT2A receptor expressed in HEK293 cells assessed as inhibition of inositol phosphate accumulation
Readings of pIC50 for the listed compounds
// pIC50: -log10(molar conc.)

compound	measured.target	reported.measurement
COc1cccc(C(=O)Nc2ccc(OCCN3CCOCC3)c(-c3ccnn3C)c2)c1 [TEMANOGREL]	5-hydroxytryptamine receptor 2A (Homo sapiens, UniProt P28223)	8.28

Please give the measured pIC50 for this compound: Cn1nccc1-c1cc(NC(=O)c2cccc(C(F)(F)F)c2)ccc1OCCN1CCCC1 7.64

* * *

- measured.target: 5-hydroxytryptamine receptor 2A (Homo sapiens, UniProt P28223)
- assay.details: Displacement of [125I]DOI from human recombinant 5HT2A receptor expressed in HEK293 cells by scintillation counting
Just a reminder that ties go to false: only Ki strictly below 2 nM counts as true.

Solved cases (5 shown):
smi	category.label
Cn1ncc(Cl)c1-c1cc(NC(=O)c2cccc(F)c2)ccc1OCCN1CCOCC1	true
COc1cccc(C(=O)Nc2ccc(OCCN)c(-c3ccnn3C)c2)c1	false
Cn1nccc1-c1cc(NC(=O)c2ccc(F)cc2F)ccc1OCCN1CCOCC1	false
CC(=O)N1CCN(CCOc2ccc(NC(=O)c3cccc(F)c3)cc2-c2ccnn2C)CC1	false
Cn1nccc1-c1cc(NC(=O)c2ccc(F)c(F)c2)ccc1OCCN1CCOCC1	false

API: query returns whether the compound falls strictly under 2 nM in Ki. Query: Cn1nccc1-c1cc(NC(=O)c2ccc(F)cc2)ccc1OCCN1CCOCC1 false

API: query returns whether the compound falls strictly under 2 nM in Ki. Query: COc1cccc(C(=O)Nc2ccc(OCCN3CCN(C(C)=O)CC3)c(-c3ccnn3C)c2)c1 false
